The measured values listed here are drawn from the supplement of paper PMC10567573.

B1: C22orf15 (parent)
chain: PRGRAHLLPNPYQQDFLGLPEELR

variants of: B1; experiment: protein stability index of a GFP-peptide fusion (GPS, HEK-293T) (PSI 1-6); higher = more stable; settings: c terminus: a fixed tail appended;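 further: lentivirally expressed fusions sorted by FACS into six bins by GFP to DsRed ratio, PSI derived from sequencing read proportions per bin multiplied by bin number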
Values of protein stability index greater than or equal to 3 map to fulfilled; values below map to not fulfilled.

sequenceString | classification
PRGRAHLLPNPYQQDFLGLPWELR [E21W] | not fulfilled
PRGRAHLLPNPYQQDELGLPEELR [F16E] | fulfilled
PRGRAHLLPNPYQQSFLGLPEELR [D15S] | fulfilled
PRGRAHLLPNPYQQDFLGYPEELR [L19Y] | fulfilled
PRGRAHLLPAPYQQDFLGLPEELR [N10A] | fulfilled
PRGRAHLLPNPYQQDFLGLPEESR [L23S] | fulfilled

Then there is this variant:
Confirm if protein stability index reported for the variant PRGRQHLLPNPYQQDFLGLPEELR [A5Q] is 3 or above.
fulfilled
